From: ChEMBL document CHEMBL3885861

Each entry below carries its reported AST.
Organism: Rattus norvegicus
Assay: Open TG-GATES - Regimen: Daily Repeat
Assay type: toxicity, organism-based, Sprague-Dawley
Parameters: regimen Daily Repeat, gender Male, age 6 weeks
Conditions: in vivo, po, 0 mg/kg, 72 h, tissue Plasma, route gavage, dose level Control, time 3 day
Dear colleague, please return just the value in IU/L, with no unit written.

INSERT INTO results (compound, assay_endpoint, unit_string, value_observed) VALUES
  ('C#C[C@]1(O)CC[C@H]2[C@@H]3CCC4=Cc5oncc5C[C@]4(C)[C@H]3CC[C@@]21C', 'AST', 'IU/L', 72.4),
  ('CN1C(C(=O)Nc2ccccn2)=C(O)c2sc(Cl)cc2S1(=O)=O', 'AST', 'IU/L', 91.2),
  ('C1CCC(C(CC2CCCCN2)C2CCCCC2)CC1 (stereo not given)', 'AST', 'IU/L', 76.4),
  ('CC(=O)Nc1nnc(S(N)(=O)=O)s1 [ACETAZOLAMIDE]', 'AST', 'IU/L', 81.2),
  ('CC(CN1c2ccccc2Sc2ccccc21)N(C)C (stereo not given)', 'AST', 'IU/L', 71.8);

Ask: State the recorded AST for this entry: Clc1c(Cl)c(Cl)c(Cl)c(Cl)c1Cl
Result: 59

Ask: If you can, please state the reported AST value of CN(C)[C@@H]1C(O)=C(C(N)=O)C(=O)[C@@]2(O)C(O)=C3C(=O)c4c(O)cccc4[C@@](C)(O)[C@H]3C[C@@H]12 .
Result: 69

Ask: Using the record for CCOC(=O)[C@H](CCc1ccccc1)N[C@@H](C)C(=O)N1CCC[C@H]1C(=O)O , report its AST.
Result: 63.4

Ask: Which measured AST value corresponds to O=C(O)Cc1ccccc1Nc1c(Cl)cccc1Cl ?
Result: 65

Ask: Field request: AST | item: Cc1cccc(Nc2ccccc2C(=O)O)c1C
Result: 64.2
